Test system: maximum electroshock seizure (MES) model
Assay: Maximum electroshock seizure (MES) model test
Assay type: in vivo, mice
Settings: Mus musculus, po, 1 h, 100 mg/kg oral, Slc: ddY male mice, 3 per group, electrical stimulation 1 hour after administration; inhibition of hind limb extension; read-out: MES (positive number/tested number) (converted)
Text: In order to evaluate the antiepileptic activity of each drug, maximum electroshock seizure (MES) model, subcutaneously pentetrazol-injected model (scPTZ), and amygdala kindling model in rats were used because they show a good clinical prediction. Test 1: Test with Maximum Electroshock Seizure (MES) Model Test 1 evaluates the anticonvulsant action of medicaments. Animal model used herein represents the clinical phenotypes of generalized tonic seizure and secondarily generalized tonic-clonic seizure. […]
assayEndpoint: responders at 100 mg/kg (%)
One number for each entry, in %.

As a guide, the following entries are already answered.
Entry NC(=O)Cc1cc(C(F)(F)F)ccc1-c1cccc(F)c1 : reported responders at 100 mg/kg = ?
33.3

Entry NC(=O)Cc1ccccc1-c1ccc(Cl)c(F)c1 : reported responders at 100 mg/kg = ?
66.7

Entry NC(=O)C(O)c1ccccc1-c1cc(Cl)ccc1F (stereo not shown) : reported responders at 100 mg/kg = ?
100

Entry CNC(=O)Cc1ccc(C(F)(F)F)cc1-c1ccccc1 : reported responders at 100 mg/kg = ?
66.7

Entry NC(=O)Cc1ccccc1-c1cc(Cl)ccc1F : reported responders at 100 mg/kg = ?
100

Entry CNC(=O)Cc1ccccc1-c1cccc(Cl)c1 : reported responders at 100 mg/kg = ?
100

Need responders at 100 mg/kg for each of these molecules.
1. COC(C(=O)N(C)C)c1ccccc1-c1ccccc1 (stereo not shown)
2. CNC(=O)Cc1ccccc1-c1ccccc1Cl
3. NC(=O)[C@H](O)c1ccccc1-c1cc(Cl)cc(Cl)c1 (single isomer, unassigned)
4. CNC(=O)Cc1cc(F)ccc1-c1cccc(F)c1

1: 66.7; 2: 0; 3: 66.7; 4: 100
